target: GABA-A receptor; anion channel; test: Inhibition of [3H]GABA binding to Gamma-aminobutyric acid receptor of rat brain synaptosomal membranes
measureName: IC50

INSERT INTO assay_data (molecule, measuredresult) VALUES
  ('O=C(O)C1CCCNC1 (stereo not given)', '> 100 µM'),
  ('O=C(O)[C@H]1CNC[C@@H](O)C1', '> 100 µM'),
  ('O=C(O)[C@H]1CNCC[C@@H]1O', '> 100 µM'),
  ('O=C(O)[C@@H]1CCNC[C@H]1O', '43 µM');

Here is another molecule to look at.
Enquiry: Fill blank: measured IC50 of the molecule CC(=O)N[C@@H]1CNC[C@H](C(=O)O)C1 is ____.
Return: > 100 µM
